experiment: P. aeruginosa biofilm formation inhibitors, primary screen, PAO1 strain, BacTiter-Glo luminescence, LB-PBS (AID 1144); conditions: 12 h, higher = more signal
measurementName: z-score
Please give only the number in your answer, with no unit.

Example entries begin here.
molecule: CCCNC(=O)[C@@]1(Sc2ccc(C)cc2)CC(=O)N(Cc2cc(C(F)(F)F)cc(C(F)(F)F)c2)[C@@H]1c1ccc(CO)cc1
z-score: 0.503
--
molecule: COc1cc(Cc2cc3c(c(CCc4ccccc4)n2)[Si](C(C)C)(C(C)C)O[C@H]3c2ccccc2)cc(OC)c1OC
z-score: 0.626
--
molecule: CN1C(=O)C2C(C1=O)C1C=C(CCCO)C2C(C2CC2)N1C (stereo not given)
z-score: 0.189
--
molecule: COc1ccc(NN2C(C(O)c3ccccc3)C=CC3C(=O)N(C4CCCCC4)C(=O)C32)cc1 (stereo not given)
z-score: -1.71
--
molecule: C=CCNC(=O)[C@@H]1[C@H]2C(=O)O[C@H](c3ccccc3)[C@H](c3ccccc3)N2[C@H](c2ccc(O)cc2)[C@@]12C(=O)Nc1ccc(C#CC3=CCCCC3)cc12
z-score: -0.909

Query block: // returns reported z-score for input "CCCCC(=C=CC[C@@H](O)c1ccccc1OCCO)C[C@@H](O)c1ccccn1"
Result block: -0.138

Query block: Check "Cc1ccc(S[C@]2(C(=O)NC(C)C)CC(=O)N(Cc3ccccc3)[C@@H]2c2ccc(CO)cc2)cc1" too.
Result block: -1.55

Query block: Also check "CC[C@@H](O[Si](C#C[Si](C(C)C)(C(C)C)C(C)C)(C(C)C)C(C)C)c1cn([C@H](C)c2ccccc2)nn1"
Result block: -0.0357

Query block: And what about the molecule "COC(=O)C(CC#Cc1ccc2c(c1)[C@]1(C(=O)N2)[C@H](c2ccccc2OCCO)N2[C@H](c3ccccc3)[C@H](c3ccccc3)OC(=O)[C@H]2[C@@H]1C(=O)N1CCN(c2ncccn2)CC1)C(=O)OC" ?
Result block: -0.321

Query block: Also check "[N-]=[N+]=Nc1ccccc1C[C@]1(C(N)=O)COC(c2ccc(OCCCO)cc2)=N1"
Result block: -1.16

Where do the numbers come from? From PubChem BioAssay.
